Tested on: E. faecalis ATCC 29212 (NB04001)
Counter-ions that a name gives are not always drawn.

compound	MIC
C[C@H]1COc2c(N3CC4=C(CNC4)C3)c(F)cc3cc(C(=O)O)c(=O)n1c23	> 32 µg/mL
C[C@H]1COc2c(N3Cc4cccc(F)c4C3)c(F)cc3cc(C(=O)O)c(=O)n1c23	1 to 32 µg/mL
C[C@H]1COc2c(N3CC4CC4(N)C3)c(F)cc3ccc(=O)n1c23 (stereo partly shown) [Example 6.2, hydrochloride salt]	1 to 32 µg/mL
C[C@H]1CCOc2c(N3CC[C@@H](C4(N)CC4)C3)c(F)cc3cc(C(=O)O)c(=O)n1c23	< 1 µg/mL
C[C@H]1COc2c(N3CC[C@@H](C4(N)CC4)C3)cc(N)c3cc(C(=O)O)c(=O)n1c23	1 to 32 µg/mL
C[C@H]1COc2c(N3CC4CNC4C3)c(F)cc3cc(C(=O)O)c(=O)n1c23 (single isomer, unassigned)	> 32 µg/mL
C[C@H]1COc2c(N3CCC(F)(CN)C3)ccc3cc(C(=O)O)c(=O)n1c23 (stereo partly shown)	1 to 32 µg/mL
C[C@H]1COc2c(N3CC[C@H](O)C3)c(F)cc3cc(C(=O)O)c(=O)n1c23	1 to 32 µg/mL
C[C@H]1COc2c(N3CCCC4(CCN(C)C4)C3)c(F)cc3cc(C(=O)O)c(=O)n1c23 (mixture of isomers)	> 32 µg/mL
C[C@H]1COc2c(N3C[C@H](F)[C@@H](C4(N)CC4)C3)c(F)cc3cc(C(=O)O)c(=O)n1c23	1 to 32 µg/mL
C[C@H]1COc2c(N3CC[C@@H](C4(N)CC4)C3)c(F)cc3c(CN)cc(=O)n1c23	< 1 µg/mL
C[C@H]1COc2c(N3CC[C@@H](C4(N)CC4)C3)c(Cl)cc3cc(C(=O)O)c(=O)n1c23 [Example 18, hydrochloride salt]	1 to 32 µg/mL
CC1Cc2c(N3CC[C@@H]([C@H](C)N)C3)c(F)cc3cc(C(=O)O)c(=O)n1c23 (stereo partly shown)	< 1 µg/mL
COC(=O)c1cc2cc(F)c(N3CC[C@@H](C4(N)CC4)C3)c3c2n(c1=O)[C@@H](C)CO3	< 1 µg/mL
CC1CCc2c(N3CC[C@@H](C4(N)CC4)C3)c(F)cc3cc(C(=O)O)c(=O)n1c23.O=C(O)C(F)(F)F (single isomer, unassigned)	< 1 µg/mL
C[C@H]1COc2c(N3C[C@H]4[C@@H](C3)S(=O)(=O)C[C@@H]4N)c(F)cc3cc(C(=O)O)c(=O)n1c23	> 32 µg/mL
C[C@H]1COc2c(N3C[C@@H](CO)[C@@H](CO)C3)c(F)cc3cc(C(=O)O)c(=O)n1c23	> 32 µg/mL
C[C@H]1COc2c(N3CC[C@@H]([C@@H](N)CF)C3)c(F)cc3cc(C(=O)O)c(=O)n1c23	< 1 µg/mL
C[C@H]1COc2c(N3Cc4cncnc4C3)c(F)cc3cc(C(=O)O)c(=O)n1c23	1 to 32 µg/mL
CC1Cc2c(N3CCNCC3)c(F)cc3cc(C(=O)O)c(=O)n1c23 (stereo not shown)	> 32 µg/mL
C[C@H]1COc2c(N3CCC(C4(N)CCC4)C3)c(F)cc3cc(C(=O)O)c(=O)n1c23 (single isomer, unassigned)	< 1 µg/mL
C[C@H]1COc2c(N3CC4CC4(N)C3)c(F)cc3cc(C(=O)O)c(=O)n1c23 (stereo partly shown)	1 to 32 µg/mL
C[C@H]1COc2c(N3CC4CCCC(C3)N4)c(F)cc3cc(C(=O)O)c(=O)n1c23	> 32 µg/mL
C[C@H]1COc2c(N3CCC(C4CC4N)CC3)c(F)cc3cc(C(=O)O)c(=O)n1c23 (mixture of isomers)	1 to 32 µg/mL
C[C@H]1COc2c(N3CCC4(CC4N)C3)c(F)c(F)c3cc(C(=O)O)c(=O)n1c23 (single isomer, unassigned)	< 1 µg/mL
COc1c(N2C[C@@H]3CCCN[C@@H]3C2)c(F)cc2c(=O)c(C(=O)O)cn(C3CC3)c12 [MOX, moxifloxacin, reference compound]	< 1 µg/mL
CC1Cc2c(N3CC[C@@H](C4(N)CC4)C3)c(F)cc3cc(C(=O)O)c(=O)n1c23.Cl (single isomer, unassigned)	< 1 µg/mL
C[C@H]1COc2c(N3CCC4(CCCN4C)CC3)c(F)cc3cc(C(=O)O)c(=O)n1c23	> 32 µg/mL
